- assay: Solubility of diol compounds in aqueous solution
- Assay type: physicochemical
- test_context: pH 1.2, read-out: Solubility (μM) pH: 1.2
// values below are reported solubility

See these solved cases before continuing.
O=C(Nc1ccc(C(F)(F)F)cn1)C1=CCN(c2ncc([C@@H](O)CO)cc2F)CC1 [Compound F2] ... > 50 µM
O=C(Nc1ccc(C(F)(F)F)cn1)C1=CCN(c2ncc([C@H](O)CO)cc2F)CC1 [Compound E2] ... > 50 µM
O=C(Nc1ccc(C(F)(F)F)cc1)C1=CCN(c2ncc([C@H](O)CO)cc2F)CC1 [Compound A14] ... > 50 µM

Query molecule follows.
**Query** Find the recorded solubility belonging to O=C(Nc1nc2ccc(F)cc2s1)C1=CCN(c2ncc([C@H](O)CO)cc2F)CC1 [Compound I5] and report it.
**Result** 46 µM

* * *

- assay: Solubility of diol compounds in aqueous solution
- Type: physicochemical
- test_context: pH 6.8, aqueous buffer, read-out: Solubility (μM) pH: 6.8
quantity_name: solubility (µM)
Write the value in µM as a bare number.

Known results for compounds:
O=C(Nc1nc2ccc(F)cc2s1)C1=CCN(c2ncc([C@H](O)CO)cc2F)CC1 ... 1
O=C(Nc1ccc(C(F)(F)F)cn1)C1=CCN(c2ncc([C@H](O)CO)cc2F)CC1 [Compound E2] ... 25
O=C(Nc1ccc(C(F)(F)F)cc1)C1=CCN(c2ncc([C@H](O)CO)cc2F)CC1 ... 19

Now consider a different compound.
**Query** For O=C(Nc1ccc(C(F)(F)F)cn1)C1=CCN(c2ncc([C@@H](O)CO)cc2F)CC1 , what is its reported solubility?
**Result** 21

* * *

- assay_system: UniProt:Q8NER1
- assay: Capsaicin-based assay (Fluo-4 calcium fluorescence, TRPV1/CHO cells)
- Assay type: cell-based
- Set-up: expressed in transfected cells
- Experimental: One day prior to assay, TRPV1/CHO cells are seeded in 96-well clear-bottom black plates (20,000 cells/well) in growth media. […] The plates are then transferred to a Fluorescence Imaging Plate Reader (Molecular Devices). Fluorescence intensity is monitored for 15 seconds to establish a baseline. […] Data are collected over the entire time course and analyzed using Excel and the curve-fitting Formula GraphPad Prism.
quantity_name: IC50 (nM)
Kindly provide the numeric value in nM only, without the unit symbol.

O=C(Nc1ccc(C(F)(F)F)cc1)C1=CCN(c2ncc([C@@H](O)CO)cc2F)CC1 [Compound B14] ... 29.4

Could you now look at the following compound, please?
**Query** Dear colleague, I am looking for the recorded IC50 of the following compound: O=C(Nc1ccc(C(F)(F)F)cc1)C1=CCN(c2ncc([C@H](O)CO)cc2F)CC1 [Compound A14]
**Result** 23.8

* * *

- assay_system: human TRPV1 (Homo sapiens, UniProt Q8NER1)
- Sequence (Q8NER1 whole entry): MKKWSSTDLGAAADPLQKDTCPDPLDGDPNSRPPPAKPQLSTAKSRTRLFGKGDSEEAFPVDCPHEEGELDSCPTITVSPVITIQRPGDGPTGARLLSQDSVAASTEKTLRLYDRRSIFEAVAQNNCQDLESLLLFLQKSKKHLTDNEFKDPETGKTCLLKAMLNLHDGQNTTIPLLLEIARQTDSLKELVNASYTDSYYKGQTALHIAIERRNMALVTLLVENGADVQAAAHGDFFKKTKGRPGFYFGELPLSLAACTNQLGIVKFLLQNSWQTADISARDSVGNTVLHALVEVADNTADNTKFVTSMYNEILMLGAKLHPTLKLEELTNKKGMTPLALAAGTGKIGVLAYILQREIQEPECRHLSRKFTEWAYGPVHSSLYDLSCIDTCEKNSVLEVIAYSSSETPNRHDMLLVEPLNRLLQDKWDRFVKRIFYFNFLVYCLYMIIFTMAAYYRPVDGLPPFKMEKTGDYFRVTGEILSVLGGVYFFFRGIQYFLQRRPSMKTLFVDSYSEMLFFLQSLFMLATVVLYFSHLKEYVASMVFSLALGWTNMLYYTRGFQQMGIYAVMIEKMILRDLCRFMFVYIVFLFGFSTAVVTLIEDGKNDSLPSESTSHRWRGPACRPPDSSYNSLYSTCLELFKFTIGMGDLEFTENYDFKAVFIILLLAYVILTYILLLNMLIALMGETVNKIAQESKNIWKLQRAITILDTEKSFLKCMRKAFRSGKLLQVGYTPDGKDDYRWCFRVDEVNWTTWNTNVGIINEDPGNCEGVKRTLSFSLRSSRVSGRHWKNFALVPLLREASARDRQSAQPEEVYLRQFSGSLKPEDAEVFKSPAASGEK
- assay: Capsaicin-based assay (Fluo-4 calcium fluorescence, TRPV1/CHO cells)
- Format: cell-based
- Set-up: expressed in transfected cells
- test_context: TRPV1/CHO cells, capsaicin 100 nM final concentration; read-out: Potency, IC50(nM) Capsaicin assay
quantity_name: IC50 (nM)
The response must be a number in nM with no trailing unit.

**Query** Could you share what IC50 was measured for O=C(Nc1ccc(C(F)(F)F)cn1)C1=CCN(c2ncc([C@@H](O)CO)cc2F)CC1 [Compound F2] , tested on human TRPV1 (Homo sapiens, UniProt Q8NER1)?
**Result** 109

**Query** # returns recorded IC50 (system: human TRPV1 (Homo sapiens, UniProt Q8NER1)) for O=C(Nc1ccc(C(F)(F)F)cn1)C1=CCN(c2ncc([C@H](O)CO)cc2F)CC1 [Compound E2]
**Result** 45.9

**Query** // lookup IC50 | system=human TRPV1 (Homo sapiens, UniProt Q8NER1) | key= O=C(Nc1nc2ccc(F)cc2s1)C1=CCN(c2ncc([C@H](O)CO)cc2F)CC1 [Compound I5]
**Result** 35.6
